Source: patent US12502386B2

Tested on: Con-NCI-H82 cell
Experiment: CellTiter-Glo cell viability, Con-NCI-H82 cell (empty-vector control)
Format: cell-based, human
Conditions: Homo sapiens, NCI-H82, NCI-H82 transfected with empty virus vector (control), intracellular ATP, read-out: inhibitory effect on Con-NCI-H82 (IC50)
Label 1.0 when IC50 is strictly below 1000 nM; at or above that, label 0.0.

Some solved cases for reference:
COc1ccc2c(c1OCCCCN)C(C)N1CCc3cc4c(cc3C1=C2)OCO4 (stereo not drawn) :: 0.0
COc1ccc2c(c1OC/C=C(\C)CCC=C(C)C)C(C(Cl)(Cl)Cl)N1CCc3cc4c(cc3C1=C2)OCO4 (stereo not drawn) :: 1.0

Moving on to the next compound.
Regarding CCCOc1c(OC)ccc2c1C(C1CCCC1)N1CCc3cc4c(cc3C1=C2)OCO4 (stereo not drawn) , kindly confirm whether its IC50 is beneath 1000 nM.
1.0

###

System: sh-DNMT1 NCI-H82 cell
Assay: CellTiter-Glo cell viability, sh-DNMT1 NCI-H82 cell (DNMT1 knocked down)
Type: cell-based, human
Conditions: Homo sapiens, NCI-H82, NCI-H82 with DNMT1 knocked down by shRNA, intracellular ATP, read-out: inhibitory effect on sh-DNMT1 NCI-H82 (IC50)
Measurement Type: IC50
# answer = value followed by unit

COc1ccc2c(c1OCCCCN)C(C)N1CCc3cc4c(cc3C1=C2)OCO4 (stereo not shown) :: 5.04 µM
CCCCC1c2c(c(Br)cc(OC)c2OC)C=C2c3cc4c(cc3CCN21)OCO4 (stereo not shown) :: 6.08 µM
COc1ccc2c(c1OCCBr)CN1CCc3cc4c(cc3C1=C2)OCO4 :: 1.46 µM
CCCOc1c(OC)ccc2c1CN1CCc3cc4c(cc3C1=C2)OCO4 :: 2.56 µM
COc1ccc2c(c1OCCN1CCCCC1)C(C(Cl)(Cl)Cl)N1CCc3cc4c(cc3C1=C2)OCO4 (stereo not shown) :: 18.2 µM
COc1ccc2c(c1OCCCBr)C(C(Cl)(Cl)Cl)N1CCc3cc4c(cc3C1=C2)OCO4 (stereo not shown) :: 4.48 µM

Specify reported IC50 for the compound shown: CCCC1=C2c3cc4c(cc3CCN2C(C2CCCC2)c2c1ccc(OC)c2OC)OCO4 (stereo not shown)
6.76 µM

Specify reported IC50 for the compound shown: ClC(Cl)(Cl)C1c2c(ccc3c2OCO3)C(CCCc2ccccc2)=C2c3cc4c(cc3CCN21)OCO4 (stereo not shown)
15.4 µM

Specify reported IC50 for the compound shown: COc1ccc2c(c1OC)C(C1CCCCC1)N1CCc3cc4c(cc3C1=C2)OCO4 (stereo not shown)
5.68 µM

Specify reported IC50 for the compound shown: "C1=C2c3cc4c(cc3CCN2Cc2cc3c(cc21)OCO3)OCO4"
2.29 µM

###

Test system: Con-NCI-H82 cell
Experiment: CellTiter-Glo cell viability, Con-NCI-H82 cell (empty-vector control)
Type: cell-based, human
Details: Homo sapiens, NCI-H82, NCI-H82 transfected with empty virus vector (control), intracellular ATP, read-out: inhibitory effect on Con-NCI-H82 (IC50)
Measurement Type: IC50 (nM)
Form entry: value (nM) — number only.

Example molecules with recorded IC50:
COc1ccc2c(c1OC)C(C)N1CCc3cc4c(cc3C1=C2CCCc1ccccc1)OCO4 (stereo not drawn) [AB35411] :: 1240
[2H]C1c2c(ccc(OC)c2OCCC)C=C2c3cc4c(cc3CCN21)OCO4 (stereo not drawn) [AB36437] :: 650

Name the recorded IC50 of COc1ccc2c(c1OC)C(C(Cl)(Cl)Cl)N1CCc3cc4c(cc3C1=C2CCCc1ccccc1)OCO4 (stereo not drawn) [AB35417] , assay system Con-NCI-H82 cell.
570
